Hey, just so you know, these numbers are from paper PMC8647145.

Molecular target: T1, GST-FOXD3 (mouse, UniProt Q61060 1-465)
T1 sequence: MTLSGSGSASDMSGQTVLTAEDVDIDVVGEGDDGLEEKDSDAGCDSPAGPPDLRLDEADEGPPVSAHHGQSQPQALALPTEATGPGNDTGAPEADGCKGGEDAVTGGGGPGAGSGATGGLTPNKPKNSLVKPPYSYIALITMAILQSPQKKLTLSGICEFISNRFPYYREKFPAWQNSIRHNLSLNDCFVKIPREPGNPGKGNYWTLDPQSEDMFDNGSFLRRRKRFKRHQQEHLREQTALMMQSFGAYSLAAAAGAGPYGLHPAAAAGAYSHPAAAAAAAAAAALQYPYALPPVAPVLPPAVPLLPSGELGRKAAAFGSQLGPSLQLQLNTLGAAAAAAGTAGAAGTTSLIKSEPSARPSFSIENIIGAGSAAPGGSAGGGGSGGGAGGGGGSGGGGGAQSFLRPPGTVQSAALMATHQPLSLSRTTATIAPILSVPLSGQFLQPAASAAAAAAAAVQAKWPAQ
Assay: EMSA; EMSA: 50 nM DNA, 20 mM Tris-HCl pH 8.0, 100 mM KCl, 3 mM MgCl2, 1 mM EDTA, 5% glycerol, 0.05% NP-40, 2 mM DTT, 50 ng/ml yeast tRNA, 2.5 ng/ml BSA, 4 C, 1 h
Conditions: protein: recombinant; tags: N-terminal GST (pGEX-6P1); label: 5'-Cy5; blunt

[
  {
    "BINDER": "Sox15 (dsDNA) DNA 1: CAGAGGCTACTCTGAAACAAATAAAGAGATATAAA DNA 2: TTTATATCTCTTTATTTGTTTCAGAGTAGCCTCTG",
    "binding result": "binds"
  },
  {
    "BINDER": "MERVL-int (dsDNA) DNA 1: CCATCTTTTGATAAACACCTCAGCCAACCATTCAA DNA 2: TTGAATGGTTGGCTGAGGTGTTTATCAAAAGATGG",
    "binding result": "binds"
  },
  {
    "BINDER": "MERVL-LTR (dsDNA) DNA 1: CAGCTGTGTTCTAAGTGGTAAACAAATAATCTGCG DNA 2: CGCAGATTATTTGTTTACCACTTAGAACACAGCTG",
    "binding result": "binds"
  },
  {
    "BINDER": "MSR (dsDNA) DNA 1: CTGAAAATCATGGAAAATGAGAAACATCCACTTGA DNA 2: TCAAGTGGATGTTTCTCATTTTCCATGATTTTCAG",
    "binding result": "binds"
  }
]
